Below, each entry is listed alongside its reported composite z-score.
ASSAY TARGET: Focal adhesion kinase 1 (Homo sapiens) (UniProt Q05397)
Sequence (Q05397 whole entry, looked up): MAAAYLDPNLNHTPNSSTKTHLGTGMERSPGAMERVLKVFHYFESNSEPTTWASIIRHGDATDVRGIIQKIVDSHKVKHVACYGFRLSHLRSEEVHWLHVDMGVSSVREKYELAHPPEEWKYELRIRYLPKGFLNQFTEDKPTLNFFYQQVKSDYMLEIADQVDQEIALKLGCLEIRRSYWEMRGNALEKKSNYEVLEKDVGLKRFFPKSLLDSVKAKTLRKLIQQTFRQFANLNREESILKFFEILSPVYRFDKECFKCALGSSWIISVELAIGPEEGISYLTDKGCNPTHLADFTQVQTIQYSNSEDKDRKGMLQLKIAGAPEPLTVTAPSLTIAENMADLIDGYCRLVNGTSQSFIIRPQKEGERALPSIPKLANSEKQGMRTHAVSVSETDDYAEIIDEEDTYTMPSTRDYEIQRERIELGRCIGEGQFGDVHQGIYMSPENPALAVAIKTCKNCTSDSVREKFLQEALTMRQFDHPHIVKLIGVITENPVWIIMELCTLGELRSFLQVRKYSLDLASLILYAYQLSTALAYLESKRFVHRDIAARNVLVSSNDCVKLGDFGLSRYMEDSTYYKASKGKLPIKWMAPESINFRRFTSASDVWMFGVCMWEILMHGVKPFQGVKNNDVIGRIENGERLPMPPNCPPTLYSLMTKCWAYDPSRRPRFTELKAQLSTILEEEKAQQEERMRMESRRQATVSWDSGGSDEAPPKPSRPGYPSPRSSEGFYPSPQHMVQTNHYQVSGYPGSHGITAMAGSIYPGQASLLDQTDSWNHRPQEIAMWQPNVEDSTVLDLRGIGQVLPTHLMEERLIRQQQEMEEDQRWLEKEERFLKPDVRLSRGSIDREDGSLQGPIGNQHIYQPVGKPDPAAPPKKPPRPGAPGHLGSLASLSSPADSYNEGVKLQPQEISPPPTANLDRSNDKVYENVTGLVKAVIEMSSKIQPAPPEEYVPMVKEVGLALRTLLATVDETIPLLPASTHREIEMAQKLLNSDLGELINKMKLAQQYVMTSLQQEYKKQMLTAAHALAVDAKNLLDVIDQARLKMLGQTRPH
ASSAY PROTOCOL: PTK2 protein binding on printed compound slides – biochemical, small-molecule microarray, 635/667 nm fluorescence, BSA, DTT, primary screen (AID 1130);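 note: composite of spot emission at 667 nm and signal to noise over triplicate slides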
CONDITION INFO: 635 nm fluorescence, higher = more signal
The reply should be a number, written without any unit.

Which composite z-score value belongs to C=CCC(OC(C)=O)[C@@H]1[C@@H](N(Cc2ccc(-c3cccc(C(F)(F)F)c3)o2)C(=O)c2ccc(-c3ccccc3)cc2)c2cc(OCCCO)ccc2N1C(=O)c1ccc2ccccc2c1 (stereo not given in full) ?
0.0473

What does the data say about its composite z-score? Entry: [N-]=[N+]=Nc1ccccc1[C@@H]1OC(c2ccc(OCCCO)cc2)=N[C@]1(Cc1ccccc1)C(=O)NCCN1CCOCC1
0.15

Please give the measured composite z-score for this compound: Cc1ccc(S[C@]2(C(=O)NC3CC3)CC(=O)N(C(C)C)[C@@H]2c2ccc(CO)cc2I)cc1
0.411

Form field: reported composite z-score of O=C1C[C@@](C(=O)NC2CC2)(c2ccc([N+](=O)[O-])cc2)[C@@H](c2ccc(CO)cc2)N1C1CCCCC1
0.333

----------
ASSAY PROTOCOL: blockers of DNA damage checkpoint Chk1 activation – imaging, HeLa, hydroxyurea, phospho-Chk1 nuclear intensity, primary screen (AID 1187)
CONDITION INFO: hydroxyurea-induced phospho-Chk1 immunofluorescence imaging, higher = more signal
Calls of active or inactive are those of the source. How the calls were made is not given here.
QUANTITY MEASURED: z-score

compound_smiles=CC(C)C[C@@H]1NC(=O)[C@@H]2C[C@H](C(=O)NCCCCCCNC(=O)CS)[C@H](c3cccc(OCCO)c3)N2C1=O result="-0.358 (inactive)"
compound_smiles=COCCOC(=O)N1C(=O)[C@@]2(c3cc(C#CCC(C(=O)OC)C(=O)OC)ccc31)[C@H](C(=O)Nc1nc3ccccc3s1)[C@H]1C(=O)O[C@H](c3ccccc3)[C@H](c3ccccc3)N1[C@@H]2c1ccc(OCCO)cc1 result="0.611 (inactive)"

Continue with the molecule presented below.
Which z-score reading was recorded for the molecule CCOC(=O)C[C@H]1[C@H](OC(=O)Cc2ccc3c(c2)OCO3)[C@@H](NC(=O)Cc2ccc(OC)cc2)c2cc(OCCCO)ccc2N1C(=O)Cc1ccc(OC)cc1 ?
-1.19 (inactive)

----------
Entries and their composite z-score
Tested on: XIP peptide (Xip251-270)
ASSAY PROTOCOL: compounds binding XIP fragment 251-270 – biochemical, small-molecule microarray, fluorescence 635/667 nm, 0.5 µg/mL protein, primary screen (AID 1183)
CONDITION INFO: fluorescence 635 nm, higher = more signal

# input compound: C=CC[C@]1(C(=O)NCC(O)CO)COC(c2ccc(OCCCO)cc2)=N1 (stereo partly specified) ; wanted: its composite z-score
-1.45

Find the recorded composite z-score belonging to NC(=O)N1C(=O)C2C(C1=O)C1C=C(CCCO)C2C(C2CC2)N1Cc1sc2ccccc2c1Cl (stereo unspecified) and report it.
0.692

So what's the measured composite z-score for this one? COCCOC(=O)N1C(=O)[C@@]2(c3cc(C#CCCO)ccc31)[C@H](c1ccccc1OCCO)N1[C@H](c3ccccc3)[C@H](c3ccccc3)OC(=O)[C@H]1[C@@H]2C(N)=O
0.732

Give the measured composite z-score of O=C1O[C@H](Cc2ccccc2)[C@@H]2[C@H]3C=CCCC=C3CN2[C@H]1Cc1ccc(O)cc1 .
-0.61

Data request, read-out composite z-score, for CCCC[C@H]1OB(O)C[C@H]2C1=C(COc1ccccc1)C[C@H]1C(=O)C=CC(=O)[C@H]12
-0.114

// composite z-score lookup, key: O=C1C2C=CC(C(O)c3cccs3)N(Nc3ccc([N+](=O)[O-])cc3)C2C(=O)N1c1ccccc1 (stereo unspecified)
-0.0032

Looking for the measured composite z-score of CCC(CC)C(O)C1C=CC2C(=O)N(c3ccccc3)C(=O)C2N1Nc1ccccc1F (stereo unspecified) , can you help?
-0.243

----------
Test system: XIP peptide (Xip251-270)
ASSAY PROTOCOL: compounds binding XIP fragment 251-270 – biochemical, small-molecule microarray, fluorescence 635/667 nm, 0.5 µg/mL protein, primary screen (AID 1183)
CONDITION INFO: fluorescence 635 nm, higher = more signal
QUANTITY MEASURED: composite z-score

Examples with answers:
compound="O=C(NCC(O)CO)[C@@]1(CCS(=O)(=O)c2ccccc2)N=C(c2ccc(OCCCO)cc2)O[C@H]1c1ccccc1 (some centres undefined)" quantity_measured="composite z-score" result=0.0777
compound="COc1cc(OC)c(C(O)C2C=CC3C(=O)N(c4ccccc4)C(=O)C3N2Nc2ccc(C(C)C)cc2)cc1Br (centres undefined)" quantity_measured="composite z-score" result=0.785
compound=CCCN1C(=O)[C@]2(CCC(=O)OC(C)(C)C)N=C(c3ccc(OCCCO)cc3)O[C@@H]2c2ccccc21 quantity_measured="composite z-score" result=0.601

Next compound, please.
Give XIP peptide (Xip251-270) composite z-score for C=CCC(OC(C)=O)[C@@H]1[C@@H](N(Cc2cccc3ccccc23)C(=O)c2ccc(-c3ccccc3)cc2)c2cc(OCCCO)ccc2N1C(=O)Cc1ccc2ccccc2c1 (some centres undefined)
-0.347

----------
ASSAY TARGET: NADPH oxidase 4 (Homo sapiens)
ASSAY PROTOCOL: compounds shifting NOX4 Amplex Red fluorescence – cell-based, HEK293-NOX4, tetracycline-induced, NOX inhibitor project, primary screen (AID 1160)
CONDITION INFO: HEK293-NOX4, Amplex Red H2O2 fluorescence, 45 min; higher = more signal, called active from +8 up or from −8 down
Decision: z-score compared against 0.2; not below it gives criterion met, below it gives criterion not met.

Example results:
compound="C=CCC(OC(C)=O)[C@@H]1[C@@H](N(Cc2cccc3ccccc23)C(=O)Cc2ccc(OC)cc2)c2cc(OCCCO)ccc2N1C(=O)Cc1ccc2ccccc2c1 (stereo not given in full)" assigned_category="criterion not met"
compound="CCCCCC1=C2CNC(Cc3ccccc3)(C(=O)OC)C=C2C(C)C1=O (stereo not given)" assigned_category="criterion not met"
compound=O=C(O)[C@H](Cc1ccccc1)n1cc(C2(O)CCCCC2)nn1 assigned_category="criterion met"
compound=O=C1C[C@@](C(=O)O)(c2ccc([N+](=O)[O-])cc2)[C@@H](c2ccc(CO)cc2)N1C1CCCCC1 assigned_category="criterion not met"
compound=Cc1ccc(S[C@]2(C(=O)NC(C)C)CC(=O)N(C3CCCCC3)[C@@H]2c2ccc(CO)cc2I)cc1 assigned_category="criterion met"
compound="O=C1C2C=CC(C(O)c3cccs3)N(Nc3ccc([N+](=O)[O-])cc3)C2C(=O)N1c1ccccc1 (stereo not given)" assigned_category="criterion not met"
compound=CN(C)C(=O)[C@@]1(Cc2ccccc2CN=[N+]=[N-])COC(c2ccc(OCCCO)cc2)=N1 assigned_category="criterion not met"
compound=CC(C)NC(=O)[C@@H]1c2ccccc2C(=O)N(Cc2ccccc2C(F)(F)F)[C@H]1c1ccc(CO)cc1 assigned_category="criterion not met"
compound=COc1ccc([Si](C)(C)[C@@H]2[C@@H](CC(=O)N3CCC[C@H]3CO)O[C@]3(C(=O)N(Cc4ccc(N5CCOC5=O)cc4)c4ccccc43)[C@H]2C)cc1 assigned_category="criterion met"
compound="CC1CC/C=C\\[C@H]2OC34C=CCN(c5ccc6ccccc6c5)C(=O)[C@H]3N(C(C)CO)C(=O)[C@@H]4C2C(=O)O1 (stereo not given in full)" assigned_category="criterion not met"

I'd appreciate it if you could say whether COC(=O)C1(Cc2ccccc2)C=C2C(=C(C)C(=O)C2C)CN1 (stereo not given) has z-score at least equal to 0.2.
criterion not met

Could you tell me if the measured z-score of COc1ccc(C(=O)Nc2cccc(CN3C(=O)[C@]4(O[C@H](CC(=O)N5Cc6ccccc6C[C@H]5CO)[C@@H]([Si](C)(C)c5ccc(OC)cc5)[C@@H]4C)c4ccccc43)c2)cc1 reaches 0.2 or more?
criterion met

----------
Parameter: composite z-score. Scope: all listed entries.
ASSAY TARGET: Fibroblast growth factor 2 (Homo sapiens)
ASSAY PROTOCOL: basic fibroblast growth factor binding to printed compounds – biochemical, small-molecule microarray, 635/667 nm fluorescence, primary screen (AID 1133)
CONDITION INFO: FGF2, fluorescence 635/667, higher = more signal
Answer with a number only.

Below, each entry is followed by its recorded composite z-score result.
molecule="O=C(NCC(O)CO)[C@@]1(CCS(=O)(=O)c2ccccc2)N=C(c2ccc(OCCCO)cc2)O[C@H]1c1ccccc1 (stereo partly drawn)" result_number=-0.0831
molecule=CC(C)(C)OC(=O)CC[C@@]1(C(=O)NCCN2CCOCC2)N=C(c2ccc(OCCCO)cc2)O[C@@H]1c1ccccc1CN=[N+]=[N-] result_number=-0.495

Given the entry COc1ccccc1CN1C(=O)c2ccccc2[C@](Cc2ccccc2I)(C(=O)NCC(C)C)[C@@H]1c1ccc(CO)cc1 , report its measured composite z-score.
0.133
